Source of measurements: the SangsterLogP compilation

experiment: method code SF-AS, from DOI: 10.1016/s0045-6535(98)00132-5, PMID: 9753760
READOUT_LABEL: logP
# output: bare number, no unit

Examples from the recorded data:
COMPOUND: CCOc1ccc(NC(=O)c2cccc([N+](=O)[O-])c2O)cc1
MEASURED_RESULT: 1.98

COMPOUND: Cc1ccc(NC(=O)c2cc([N+](=O)[O-])ccc2O)cc1
MEASURED_RESULT: 2.22

COMPOUND: Cc1ccc(NC(=O)c2cccc([N+](=O)[O-])c2O)cc1
MEASURED_RESULT: 1.94

What the record says about `O=C(Nc1ccc(Cl)cc1)c1cc([N+](=O)[O-])ccc1O` : logP is 2.54

What the record says about `Cc1c(Cl)cccc1NC(=O)c1cc([N+](=O)[O-])ccc1O` : logP is 2.64

What the record says about `COc1ccc(NC(=O)c2cc([N+](=O)[O-])ccc2O)cc1` : logP is 2.19
